target: Tyrosine-protein kinase Lck (Homo sapiens) (UniProt P06239); assay: Inhibition of Lck (unknown origin) at 1 uM
Sequence (P06239 2-509 limits assumed): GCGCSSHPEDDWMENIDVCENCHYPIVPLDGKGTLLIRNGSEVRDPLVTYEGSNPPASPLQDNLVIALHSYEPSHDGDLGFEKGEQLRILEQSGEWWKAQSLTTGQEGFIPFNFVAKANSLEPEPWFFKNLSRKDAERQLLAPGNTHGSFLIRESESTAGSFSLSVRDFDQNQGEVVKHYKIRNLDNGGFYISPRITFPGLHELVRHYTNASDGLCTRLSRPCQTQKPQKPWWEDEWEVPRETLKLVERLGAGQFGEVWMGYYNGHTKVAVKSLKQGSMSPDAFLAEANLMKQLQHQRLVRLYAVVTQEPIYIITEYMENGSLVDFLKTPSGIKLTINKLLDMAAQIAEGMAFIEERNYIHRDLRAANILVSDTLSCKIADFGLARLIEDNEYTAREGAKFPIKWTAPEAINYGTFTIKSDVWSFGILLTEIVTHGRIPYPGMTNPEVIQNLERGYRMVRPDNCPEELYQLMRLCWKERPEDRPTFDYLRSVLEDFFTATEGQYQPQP
measurement name: inhibition (%)
Provide only the numeric value, understood in %.

test_smiles=Nc1ncnc2c1sc1cc(-c3cccc(C(=O)NCCc4cccnc4)c3)ccc12 measurement_name=inhibition assay_result=85

compound CN1CCN(C(=O)Nc2cccc(-c3ccc4c(c3)sc3c(N)ncnc34)c2)CC1 , inhibition observed: 75

compound Nc1ncnc2c1sc1cc(-c3cccc(C(=O)NCC(=O)N4CCOCC4)c3)ccc12 , inhibition observed: 97

compound Nc1ncnc2c1sc1cc(-c3cccc(NC(=O)N4CCCC4)c3)ccc12 , inhibition observed: 71

====

target: Tyrosine-protein kinase JAK1 (Homo sapiens) (UniProt P23458); assay: Inhibition of JAK1 (unknown origin) at 1 uM
Sequence (P23458 whole entry): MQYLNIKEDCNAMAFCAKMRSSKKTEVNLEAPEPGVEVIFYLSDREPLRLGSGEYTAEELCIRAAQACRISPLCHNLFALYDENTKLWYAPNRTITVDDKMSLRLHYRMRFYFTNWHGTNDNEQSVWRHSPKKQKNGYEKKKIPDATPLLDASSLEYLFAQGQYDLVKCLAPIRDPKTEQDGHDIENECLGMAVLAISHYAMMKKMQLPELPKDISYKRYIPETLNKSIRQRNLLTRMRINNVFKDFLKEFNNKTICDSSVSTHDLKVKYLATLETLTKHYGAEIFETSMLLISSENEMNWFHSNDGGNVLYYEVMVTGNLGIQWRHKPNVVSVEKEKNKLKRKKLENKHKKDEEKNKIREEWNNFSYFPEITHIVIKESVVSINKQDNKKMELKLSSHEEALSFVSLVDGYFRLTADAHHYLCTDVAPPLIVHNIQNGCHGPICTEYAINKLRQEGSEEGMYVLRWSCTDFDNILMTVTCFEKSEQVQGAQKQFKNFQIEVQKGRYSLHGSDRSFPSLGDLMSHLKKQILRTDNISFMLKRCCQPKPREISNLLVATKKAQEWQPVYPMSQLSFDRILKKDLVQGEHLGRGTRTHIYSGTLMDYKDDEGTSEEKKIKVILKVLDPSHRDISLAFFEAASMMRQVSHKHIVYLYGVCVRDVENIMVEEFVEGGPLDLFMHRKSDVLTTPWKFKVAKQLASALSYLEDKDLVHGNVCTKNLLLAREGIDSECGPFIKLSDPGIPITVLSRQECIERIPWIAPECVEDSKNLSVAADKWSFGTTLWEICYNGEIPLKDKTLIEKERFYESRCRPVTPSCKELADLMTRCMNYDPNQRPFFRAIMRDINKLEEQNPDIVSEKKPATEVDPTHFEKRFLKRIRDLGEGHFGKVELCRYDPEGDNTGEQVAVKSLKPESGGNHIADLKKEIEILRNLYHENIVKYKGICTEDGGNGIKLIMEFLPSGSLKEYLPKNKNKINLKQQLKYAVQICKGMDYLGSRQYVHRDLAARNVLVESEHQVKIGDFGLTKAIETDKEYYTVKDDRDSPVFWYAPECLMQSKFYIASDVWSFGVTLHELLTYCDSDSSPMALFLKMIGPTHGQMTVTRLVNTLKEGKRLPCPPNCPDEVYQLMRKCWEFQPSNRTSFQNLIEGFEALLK
measurement name: inhibition (%)
Provide only the numeric value, understood in %.

test_smiles=Nc1ncnc2c1sc1cc(-c3cccc(C(=O)NCC(=O)N4CCOCC4)c3)ccc12 assay_result=31
test_smiles=CN1CCN(C(=O)Nc2cccc(-c3ccc4c(c3)sc3c(N)ncnc34)c2)CC1 assay_result=25
test_smiles=Nc1ncnc2c1sc1cc(-c3cccc(C(=O)NCCc4cccnc4)c3)ccc12 assay_result=31

Now, please, on to the next compound.
compound Nc1ncnc2c1sc1cc(-c3cccc(NC(=O)N4CCCC4)c3)ccc12 , inhibition observed: 13

====

molecular target: Tyrosine-protein kinase JAK3 (Homo sapiens) (UniProt P52333); experiment: Inhibition of JAK3 (unknown origin) at 1 uM
Sequence (P52333 whole entry): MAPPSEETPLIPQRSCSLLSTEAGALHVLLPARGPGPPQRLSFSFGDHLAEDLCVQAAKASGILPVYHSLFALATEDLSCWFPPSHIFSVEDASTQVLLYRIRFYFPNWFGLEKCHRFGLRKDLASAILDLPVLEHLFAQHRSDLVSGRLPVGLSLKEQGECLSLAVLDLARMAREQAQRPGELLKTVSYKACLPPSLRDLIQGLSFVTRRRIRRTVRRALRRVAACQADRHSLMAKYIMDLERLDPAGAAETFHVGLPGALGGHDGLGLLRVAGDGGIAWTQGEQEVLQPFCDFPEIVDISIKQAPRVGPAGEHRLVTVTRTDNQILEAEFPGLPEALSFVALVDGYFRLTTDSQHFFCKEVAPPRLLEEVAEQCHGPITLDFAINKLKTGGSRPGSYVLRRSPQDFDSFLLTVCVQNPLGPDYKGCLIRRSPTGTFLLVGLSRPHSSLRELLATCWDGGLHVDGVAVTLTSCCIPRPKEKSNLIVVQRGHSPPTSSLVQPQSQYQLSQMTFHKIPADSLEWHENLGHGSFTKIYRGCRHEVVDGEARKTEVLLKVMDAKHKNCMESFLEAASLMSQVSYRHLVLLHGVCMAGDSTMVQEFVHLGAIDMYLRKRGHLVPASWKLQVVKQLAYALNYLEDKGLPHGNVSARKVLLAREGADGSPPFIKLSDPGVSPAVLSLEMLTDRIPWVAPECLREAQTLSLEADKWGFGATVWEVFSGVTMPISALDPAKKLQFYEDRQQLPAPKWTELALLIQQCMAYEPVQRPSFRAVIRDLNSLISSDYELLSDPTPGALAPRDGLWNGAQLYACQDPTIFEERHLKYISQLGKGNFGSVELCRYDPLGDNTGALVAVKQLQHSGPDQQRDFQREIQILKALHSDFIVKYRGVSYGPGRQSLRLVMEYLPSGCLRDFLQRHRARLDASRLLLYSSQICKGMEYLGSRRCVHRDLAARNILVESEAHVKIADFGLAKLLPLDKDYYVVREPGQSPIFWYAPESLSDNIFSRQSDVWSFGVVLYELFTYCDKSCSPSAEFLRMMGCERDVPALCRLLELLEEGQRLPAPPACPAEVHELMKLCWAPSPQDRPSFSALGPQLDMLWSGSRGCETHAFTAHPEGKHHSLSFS
Overview of reported inhibition across a group of compounds:
Provide only the numeric value, understood in %.

test_smiles=Nc1ncnc2c1sc1cc(-c3cccc(C(=O)NCCc4cccnc4)c3)ccc12 measurement_name=inhibition assay_result=60
test_smiles=Nc1ncnc2c1sc1cc(-c3cccc(NC(=O)N4CCCC4)c3)ccc12 measurement_name=inhibition assay_result=56
test_smiles=CN1CCN(C(=O)Nc2cccc(-c3ccc4c(c3)sc3c(N)ncnc34)c2)CC1 measurement_name=inhibition assay_result=53

For Nc1ncnc2c1sc1cc(-c3cccc(C(=O)NCC(=O)N4CCOCC4)c3)ccc12 on Tyrosine-protein kinase JAK3 (Homo sapiens) (UniProt P52333), measured inhibition was 65

====

biological target: hERG (KCNH2) (Homo sapiens); assay: Inhibition of human ERG at 10 uM by fluorescence polarization assay
Sequence (Q12809 whole entry): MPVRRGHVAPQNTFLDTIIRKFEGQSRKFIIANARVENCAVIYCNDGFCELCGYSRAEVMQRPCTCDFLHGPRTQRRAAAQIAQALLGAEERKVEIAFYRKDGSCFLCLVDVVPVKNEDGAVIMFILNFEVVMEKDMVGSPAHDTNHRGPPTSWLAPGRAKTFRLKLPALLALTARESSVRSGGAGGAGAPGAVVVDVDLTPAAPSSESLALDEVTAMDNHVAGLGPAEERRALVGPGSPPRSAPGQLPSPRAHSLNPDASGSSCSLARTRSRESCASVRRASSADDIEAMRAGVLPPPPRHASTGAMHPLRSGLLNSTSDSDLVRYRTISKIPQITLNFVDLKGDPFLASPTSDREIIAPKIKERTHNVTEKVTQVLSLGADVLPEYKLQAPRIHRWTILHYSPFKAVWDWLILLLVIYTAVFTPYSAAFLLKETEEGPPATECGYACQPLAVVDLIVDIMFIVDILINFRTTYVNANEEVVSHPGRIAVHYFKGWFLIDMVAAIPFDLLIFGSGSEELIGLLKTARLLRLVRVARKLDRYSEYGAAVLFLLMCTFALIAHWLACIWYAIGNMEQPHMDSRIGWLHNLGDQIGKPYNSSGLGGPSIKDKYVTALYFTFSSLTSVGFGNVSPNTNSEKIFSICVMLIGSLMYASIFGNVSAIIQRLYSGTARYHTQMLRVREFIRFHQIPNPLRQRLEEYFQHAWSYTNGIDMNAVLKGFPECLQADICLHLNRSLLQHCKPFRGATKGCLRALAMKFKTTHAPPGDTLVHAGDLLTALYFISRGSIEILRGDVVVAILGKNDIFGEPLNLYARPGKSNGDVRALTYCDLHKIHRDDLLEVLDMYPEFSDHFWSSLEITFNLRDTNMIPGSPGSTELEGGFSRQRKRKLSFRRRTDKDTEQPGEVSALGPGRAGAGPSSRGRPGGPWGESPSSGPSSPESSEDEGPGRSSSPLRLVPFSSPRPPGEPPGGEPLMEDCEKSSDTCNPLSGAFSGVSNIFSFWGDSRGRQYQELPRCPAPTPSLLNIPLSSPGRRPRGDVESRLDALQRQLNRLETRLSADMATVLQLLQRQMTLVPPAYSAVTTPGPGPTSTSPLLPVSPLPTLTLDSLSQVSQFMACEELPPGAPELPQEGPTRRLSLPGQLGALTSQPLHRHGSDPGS
measurement name: inhibition at 10 µM (%)
Provide only the numeric value, understood in %.

As a guide, the following entries are already answered.
test_smiles=CN1CCN(C(=O)Nc2cccc(-c3ccc4c(c3)sc3c(N)ncnc34)c2)CC1 measurement_name="inhibition at 10 µM" assay_result=27
test_smiles=Nc1ncnc2c1sc1cc(-c3cccc(NC(=O)N4CCCC4)c3)ccc12 measurement_name="inhibition at 10 µM" assay_result=0
test_smiles=Nc1ncnc2c1sc1cc(-c3cccc(C(=O)NCC(=O)N4CCOCC4)c3)ccc12 measurement_name="inhibition at 10 µM" assay_result=0

compound Nc1ncnc2c1sc1cc(-c3cccc(C(=O)NCCc4cccnc4)c3)ccc12 , inhibition at 10 µM observed: 11

====

assay: Plasma protein binding in human by LC-MS analysis; format: ADME, cell-free; conditions: read-out: PPB (converted)
Overview of reported fraction unbound across a group of compounds:

As a guide, the following entries are already answered.
test_smiles=Nc1ncnc2c1sc1cc(-c3cccc(-c4nn[nH]n4)c3)ccc12 assay_result=0.012
test_smiles=Nc1ncnc2c1sc1cc(-c3cccc(C(=O)NCCc4cccnc4)c3)ccc12 assay_result=0.014
test_smiles=Nc1ncnc2c1sc1cc(-c3cccc(C(=O)NCC(=O)N4CCOCC4)c3)ccc12 assay_result=0.053
test_smiles=NC(=O)c1cccc(-c2ccc3c(c2)sc2c(N)ncnc23)c1 assay_result=0.037
test_smiles=CN1CCN(C(=O)Nc2cccc(-c3ccc4c(c3)sc3c(N)ncnc34)c2)CC1 assay_result=0.037

compound CC(C)C(=O)Nc1ncc(-c2cc(C(F)F)nn2-c2c(Cl)cccc2Cl)s1 , fraction unbound observed: 0.029
